Measured values drawn from patent US6605628B1 for this set.

In this section we review reported pIC50 values for a set of compounds.
target: FPTase (Homo sapiens, UniProt P49354+P49356); assay: in vitro FTase Inhibition Assay, K-Ras used as substrate for farnesylation; type: biochemical; conditions: Table I
Lab note — pIC50 values are minus log10 of concentrations in M.

Worked cases, pIC50 given:
> print(dat)
                                   compound                             target.system  reported.result
1  COc1ccc(S(=O)(=O)C2(CCCC#Cc3cc(NC(=O)Nc4ccc(Cl)cc4)ccc3C)SC(=O)NC2=O)cc1 (stereo not shown)  FPTase (Homo sapiens, UniProt P49354+P49356)             5.92
2  O=C1NC(=O)C(CCCC#Cc2ccc(-n3cccc3)cc2)(S(=O)(=O)c2ccc(I)cc2)S1 (stereo not shown)  FPTase (Homo sapiens, UniProt P49354+P49356)             5.40

// moving on: another record for pIC50
Request the reported pIC50 associated with Cc1ccc([N+](=O)[O-])cc1C#CCCCC1(S(=O)(=O)c2cccc3ccccc23)SC(=O)NC1=O (stereo not shown)
5.77

====

Target: FPTase (Homo sapiens, UniProt P49354+P49356)
Test: in vitro FTase Inhibition Assay, K-Ras used as substrate for farnesylation
Format: biochemical
Settings: Table I
Description: Enzyme test procedure: FPTase inhibition in vitro assay was performed according to James, G. L., Brown, M. S., and Goldstein, J. L., Methods in Enzymology, 1995, 255, 38-46; and Garcia, M. A., et al., J. Biol. Chem., 1993, 268, 18415-18420. […] Analysis of Results—Percent inhibition by test compounds is determined by the following: […]
test_readout: IC50 (nM)
Write the number in nM without appending the unit.

> print(dat)
                                   compound  reported.result
1  Cc1ccc(S(=O)(=O)C2(CCCC#Cc3ccc(C(C)(C)C)cc3)SC(=O)NC2=O)cc1 (stereo not shown)             5000

// moving on: another record for IC50
Item: COc1ccc(S(=O)(=O)C2(CCCC#Cc3ccc([N+](=O)[O-])cc3)SC(=O)NC2=O)cc1 (stereo not shown) Test system: FPTase (Homo sapiens, UniProt P49354+P49356) Read-out: IC50 Value: ?
1600

====

target: FPTase (Homo sapiens, UniProt P49354+P49356); experiment: in vitro FTase Inhibition Assay, K-Ras used as substrate for farnesylation; type: biochemical; conditions: Table I
test_readout: IC50 (nM)
Write the number in nM without appending the unit.

> print(dat)
                                   molecule                             target.system  unit.tag  reported.result
1  COc1ccc(S(=O)(=O)C2(CCCC#Cc3cccc([N+](=O)[O-])c3)SC(=O)NC2=O)cc1 (stereo not shown)  FPTase (Homo sapiens, UniProt P49354+P49356)        nM             1900

Request the reported IC50 associated with Cc1ccc([N+](=O)[O-])cc1C#CCCCC1(S(=O)(=O)c2ccc(I)cc2)SC(=O)NC1=O (stereo not shown)
400

Also O=C1NC(=O)C(CCCC#Cc2ccc(Cl)cc2)(S(=O)(=O)c2ccc([N+](=O)[O-])cc2)S1 (stereo not shown) , if possible.
7000

====

molecular target: FPTase (Homo sapiens, UniProt P49354+P49356); experiment: in vitro FTase Inhibition Assay, H-Ras used as substrate for farnesylation; type: biochemical; details: Table II, read-out: IC50 (wi. H-Ras)
In this section we review reported IC50 values for a set of compounds.
Write the number in nM without appending the unit.

Worked cases, IC50 given:
> print(dat)
                                   compound  test.readout  reported.result
1  O=C1NC(=O)C(CC#Cc2cccc(Cl)c2)(S(=O)(=O)c2ccccc2)S1 (stereo not shown) [Example 261]          IC50              300
2  COc1ccc(C#CCC2(S(=O)(=O)c3ccc(C)cc3)SC(=O)NC2=O)cc1 (stereo not shown) [Example 252]          IC50               80
3  O=C1NC(=O)C(CC#Cc2ccc(F)cc2)(S(=O)(=O)c2ccc(Cl)cc2)S1 (stereo not shown) [Example 255]          IC50              150

// moving on: another record for IC50
Request the reported IC50 associated with O=C1NC(=O)C(CC#Cc2ccc(C(F)(F)F)cc2)(S(=O)(=O)c2ccccc2)S1 (stereo not shown) [Example 254]
500

====

In this section we review reported IC50 values for a set of compounds.
biological target: FPTase (Homo sapiens, UniProt P49354+P49356); experiment: in vitro FTase Inhibition Assay, K-Ras used as substrate for farnesylation; type: biochemical; conditions: Table I

Worked cases, IC50 given:
compound	reported_result
COc1cccc(S(=O)(=O)C2(CCCC#Cc3cccs3)SC(=O)NC2=O)c1 (centres unmarked)	> 10000 nM
COc1ccc(S(=O)(=O)C2(CCCC#Cc3ccc(NC(=O)OC(C)(C)C)cc3C)SC(=O)NC2=O)cc1 (centres unmarked)	1000 to 4900 nM
O=C1NC(=O)C(CCCC#Cc2ccc(Cl)cc2)(S(=O)(=O)c2ccc3ccccc3c2)S1 (centres unmarked)	620 to 700 nM
COc1ccc(S(=O)(=O)C2(CCCC#Cc3cc(NC(=O)OCc4ccc([N+](=O)[O-])cc4)ccc3C)SC(=O)N(C(=O)OCc3ccc([N+](=O)[O-])cc3)C2=O)cc1 (centres unmarked)	210 to 400 nM
COc1ccc(S(=O)(=O)C2(CCCC#Cc3cc(NC(=O)OCc4ccc([N+](=O)[O-])cc4)ccc3C)SC(=O)NC2=O)cc1 (centres unmarked)	30 to 320 nM

Request the reported IC50 associated with O=C1NC(=O)C(CCCC#Cc2ccc(Cl)cc2)(S(=O)(=O)c2ccc(Oc3ccccc3)cc2)S1 (centres unmarked)
1300 to 1700 nM

Also COC(=O)Nc1ccc(C)c(C#CCCCC2(S(=O)(=O)c3ccc(OC)cc3)SC(=O)NC2=O)c1 (centres unmarked) , if possible.
10 nM

Also COc1ccc(S(=O)(=O)C2(CCCC#Cc3cc([N+](=O)[O-])ccc3OC)SC(=O)NC2=O)cc1 (centres unmarked) , if possible.
1000 to 2800 nM

Also Cc1ccc(S(=O)(=O)C2(CCC/C=C\c3ccc(Cl)cc3)SC(=O)NC2=O)cc1 (centres unmarked) , if possible.
8500 nM

====

In this section we review reported pIC50 values for a set of compounds.
target: FPTase (Homo sapiens, UniProt P49354+P49356); assay: in vitro FTase Inhibition Assay, H-Ras used as substrate for farnesylation; type: biochemical; settings: Table I, read-out: IC50 H-Ras*
pIC50: −log10 of the molar value.

compound	pIC50
COc1ccc(S(=O)(=O)C2(CCCC#Cc3cc(NC(=O)Nc4ccc(Cl)cc4)ccc3C)SC(=O)NC2=O)cc1 (stereo not drawn) [Example 189]	7.00

Request the reported pIC50 associated with COc1ccc(S(=O)(=O)C2(CCCC#Cc3ccc([N+](=O)[O-])cc3)SC(=O)NC2=O)cc1 (stereo not drawn) [Example 121]
6.92

Also COc1ccc(S(=O)(=O)C2(CCCC#Cc3cccs3)SC(=O)NC2=O)cc1 (stereo not drawn) [Example 166] , if possible.
6.82

Also COc1ccc(S(=O)(=O)C2(CCCC#Cc3ccccc3Cl)SC(=O)NC2=O)cc1 (stereo not drawn) [Example 101] , if possible.
7.52 to 8.00

Also COc1ccc(S(=O)(=O)C2(CCCC#Cc3ccc(C(F)(F)F)cc3)SC(=O)NC2=O)cc1 (stereo not drawn) [Example 153] , if possible.
6.70 to 6.77

Also COc1ccc(S(=O)(=O)C2(CCCC#Cc3ccc([N+](=O)[O-])cc3C)SC(=O)NC2=O)cc1 (stereo not drawn) [Example 130] , if possible.
7.25 to 7.64

Also CCCCOc1ccc(S(=O)(=O)C2(CCCC#Cc3ccc(Cl)cc3)SC(=O)NC2=O)cc1 (stereo not drawn) [Example 112] , if possible.
6.22 to 6.23

Also COc1ccc(S(=O)(=O)C2(CCCC#Cc3cc(NC(=O)OCc4ccccc4)ccc3C)SC(=O)N(C(=O)OCc3ccccc3)C2=O)cc1 (stereo not drawn) [Example 226] , if possible.
7.30 to 7.52

Also COc1ccc(S(=O)(=O)C2(CCCC#Cc3cc(NC(=O)OC(C)(C)C)ccc3C)SC(=O)NC2=O)cc1 (stereo not drawn) [Example 150] , if possible.
7.49 to 8.13

Also Cc1ccc([N+](=O)[O-])cc1C#CCCCC1(S(=O)(=O)c2ccc(I)cc2)SC(=O)NC1=O (stereo not drawn) [Example 125] , if possible.
7.52

Also COc1ccc(S(=O)(=O)C2(CCCC#Cc3ccc(C)cc3C)SC(=O)NC2=O)cc1 (stereo not drawn) [Example 136] , if possible.
7.30 to 7.37

Also COc1ccc(S(=O)(=O)C2(CCCC#Cc3cc(C)ccc3C)SC(=O)NC2=O)cc1 (stereo not drawn) [Example 135] , if possible.
7.49 to 7.70

Also COc1ccc(S(=O)(=O)C2(CCCC#Cc3cc(NC(=O)OC(C)(C)C)ccc3C)SC(=O)NC2=O)cc1 (single isomer, unassigned; more polar) [Example 223] , if possible.
7.20

Also O=C1NC(=O)C(CCCC#Cc2ccc(Cl)cc2)(S(=O)(=O)c2ccc(I)cc2)S1 (stereo not drawn) [Example 104] , if possible.
7.27 to 7.52

Also Cc1ccc(C)c(C#CCCCC2(S(=O)(=O)c3ccc(I)cc3)SC(=O)NC2=O)c1 (stereo not drawn) [Example 134] , if possible.
6.07 to 7.85
